Target of assay: T1, soluble human Kallikrein-2 (hK2) (human, UniProt P20151 25-261)
T1 construct: The construct used in SPR, ELISA and MSD screening is not defined; the stated signal peptide (1-18) is left out, and the pro-peptide (19-24) may or may not have been present; also called KLK2; soluble hK2
T1 sequence (P20151 25-261): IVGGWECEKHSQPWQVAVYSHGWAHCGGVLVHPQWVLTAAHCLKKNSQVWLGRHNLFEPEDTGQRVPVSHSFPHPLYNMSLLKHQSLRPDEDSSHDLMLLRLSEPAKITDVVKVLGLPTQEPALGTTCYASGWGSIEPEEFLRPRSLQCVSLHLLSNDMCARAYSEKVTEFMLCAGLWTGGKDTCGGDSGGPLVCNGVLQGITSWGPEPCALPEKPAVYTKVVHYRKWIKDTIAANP
Protocol text: SPR; antibody captured on anti-Fc sensor chip, soluble hK2 injected; 1:1 Langmuir fit, KD = koff/kon
So basically: is Kd under 0.05 nM? Then rule met. Not under? Then rule not met.

KL2B242 (antibody, human IgG4 S228P, lambda, F234A L235A, V domains shown, also called KL2B242 (Fab); KL2B242 Fab) VH: QVQLQESGPGLVKPSETLSLTCTVSGGSISSYYWSWLRQPAGSGLEWIGRLYVSGFTNYNPSLKSRVTLSLDPSRNQLSLKLSSVTAADTAVYYCAGDSGNYWGWFDPWGQGTLVTVSS VL: SYELTQPPSVSVSPGETASITCSGDQLGENYACWYQQKPGQSPVLVIYQDSKRPSGIPERFSGSNSGNTATLTISGTQALDEADYYCQAWDNSIVVFGGGTKLTVLG	rule met
KL2B30 (antibody, V domains shown, also called KL2B30 (Fab); KL2B30 Fab) VH: QVQLQESGPGLVKPSETLSLTCTVSGGSISSYYWSWIRQPPGKGLEWIGYIYYSGSTNYNPSLKSRVTISVDTSKNQFSLKLSSVTAADTAVYYCAGTTIFGVVTPNFYYGMDVWGQGTTVTVSS VL: DIQMTQSPSFLSASVGDRVTITCRASQGISSYLAWYQQKPGKAPKFLIYAASTLQSGVPSRFSGSGSGTEFTLTISSLQPEDFATYYCQQLNSYPLTFGGGTKVEIKR	rule not met
KL2B494 (antibody, V domains shown, also called KL2B494 (Fab); KL2B494 Fab) VH: QVQLVESGGGLVQPGGSLRLSCAASGFTFSHYAMSWVRQAPGKGLEWVSTIGGSGGSTYYADSVKGRFTISRDNSKNTLYLQMNSLRAEDTAVYYCAKPHIVMVTALLYDGMDVWGQGTMVTVSS VL: SSELTQPPSVSVAPGQTARITCGGNNIGSKSVHWYQQKPGQAPVLVVYDDSDRPSGIPERFSGSNSGNTATLTISRVEAGDEADYYCQVWDSSSDHVVFGGGTKLTVLG	rule not met

Would you kindly verify if Kd of KL2B413 (scFv) (scFv, V domains shown) VH: EVQLVESGGGLVQPGGSLRLSCAASGFTFSSYWMTWVRQAPGKGLEWVANIKQDGSERYYVDSVKGRFTISRDNAKNSLYLQMNSLRAEDTAVYYCARDQNYDILTGHYGMDVWGQGTTVTVSS VL: EIVLTQSPSFLSASVGDRVTITCRASQGISSYLSWYQQKPGKAPKLLIYATSTLQSGVPSRFSGSGSGTEFTLTISSLQPEDFATYYCQQLNSYPRTFGQGTKVEIK is strictly less than 0.05 nM?
rule not met

Further, for KL2B467 (antibody, V domains shown, also called KL2B467 (Fab); KL2B467 Fab) VH: QVQLVESGGGVVQPGRSLRLSCAASGFTFSYYGMHWVRQAPGKGLEWVAFISYDGSNKYYADSVKGRFTISRDNSKNTLYLQMNSLRAEDTAVYYCAHLPYSGSYWAFDYWGQGTQVTVSS VL: QSVLTQPPSVSVAPGQTASITCGGDNIGSKSVHWYQQKPGQAPVLVVYDNSDRPSGIPERFSGSNSGTTATLTISRVEAGDEADYYCQVWDSSSDHPVVFGGGTKVTVLG ?
rule not met

Further, for KL2B53 (antibody, V domains shown, also called KL2B53 (Fab); KL2B53 Fab) VH: EVQLVESGGGVVQPGRSLRLSCVASGFTFSSYDIHWVRQAPGKGLEWVAIISYDGSKKDYTDSVKGRFTISRDNSKNTLYLQMDSLRVEDSAVYSCARESGWSHYYYYGMDVWGQGTMVTVSS VL: DIVMTQSPSSLSASVGDRVTITCRASQDISNYLAWYQQKPGKVPKFLIYAASTLHSGVPSRFSGSGSGTDFTLTISSLQPEDVATYYCQKYNSAPYTFGQGTRLEIKR ?
rule not met
